- Tested on: biotinyl-Leu-oxazolone
- Experiment notes: self-aminoacylation, catalytic enhancement (BLO) (fold over background); higher = more active; k-Seq, kA / k0A0; sequences stand for … in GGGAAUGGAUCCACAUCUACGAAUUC…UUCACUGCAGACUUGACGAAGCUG
Fewer inactive variants are shown than the library holds.
Overview of reported self-aminoacylation across a group of sequences:
Answer using only a numeral; do not append any unit.

The examples below pair each entry with its known result.
Sequence	self-aminoacylation
AAGUUUGGGAAUAGUCGCAAG [Fam3.1 aminoacylation ribozyme variant]	1.05
AUUACCCUCGUAAUCGAGUGA [Fam2.1 aminoacylation ribozyme variant]	17.2
CAGUUUGCAAAUAGUCGCAAG [Fam3.1 aminoacylation ribozyme variant]	2.03
ACGUUUCCUAAUAGUCGCAAG [Fam3.1 aminoacylation ribozyme variant]	1.08

Please give the documented self-aminoacylation of AUUACCCUGGUGUUCGAGUGA [Fam2.1 aminoacylation ribozyme variant] 6.71

Data provenance: the supplement of paper PMC9233669
